All figures here come from patent US9637496B2.

# EXPERIMENTAL_SYSTEM: rat orexin 1 receptor (Rattus norvegicus (Rat))
# Sequence (P56718 whole entry): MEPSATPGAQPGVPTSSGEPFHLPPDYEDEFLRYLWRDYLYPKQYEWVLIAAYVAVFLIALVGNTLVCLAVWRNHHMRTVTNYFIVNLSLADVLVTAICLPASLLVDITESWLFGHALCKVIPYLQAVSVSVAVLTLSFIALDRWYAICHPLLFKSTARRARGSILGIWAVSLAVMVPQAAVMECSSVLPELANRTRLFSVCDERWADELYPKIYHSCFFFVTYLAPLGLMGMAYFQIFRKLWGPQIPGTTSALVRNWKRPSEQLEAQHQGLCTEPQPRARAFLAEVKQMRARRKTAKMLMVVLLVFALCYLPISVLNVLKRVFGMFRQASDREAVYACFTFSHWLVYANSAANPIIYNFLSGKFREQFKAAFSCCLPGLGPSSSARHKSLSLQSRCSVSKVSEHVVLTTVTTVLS
# METHOD_DESCRIPTION: Rat orexin 1 receptor radioligand binding (competitive binding, HEK293 membranes)
# CONDITION_PARAMETERS: rat orexin 1 receptor; Table 2, averages from between 2-20 runs; read-out: rOX1 Ki
READOUT_TYPE: Ki (µM)
Just the number in µM, nothing appended.

{"MOLECULE": "O=C(c1cccc(F)c1-n1ccnn1)N1C2CCC1C(Oc1ccc(C(F)(F)F)cn1)C2 (racemic)", "OUTPUT_UNIT": "µM", "NUMERIC_RESULT": 2.7}
{"MOLECULE": "O=C(c1c(F)cccc1-n1nccn1)N1[C@@H]2CC[C@H]1[C@H](Nc1ccc(C(F)(F)F)cn1)C2", "OUTPUT_UNIT": "µM", "NUMERIC_RESULT": 0.104}
{"MOLECULE": "O=C(c1cccc(F)c1-c1ncc(F)cn1)N1[C@@H]2CC[C@H]1[C@H](Nc1cnc(C(F)(F)F)cn1)C2", "OUTPUT_UNIT": "µM", "NUMERIC_RESULT": 0.061}
{"MOLECULE": "O=C(c1cccc(F)c1-c1ncccn1)N1[C@@H]2CC[C@H]1[C@H](Nc1ncc(Br)cn1)C2", "OUTPUT_UNIT": "µM", "NUMERIC_RESULT": 0.03}
{"MOLECULE": "Cc1cnc(-c2ncccn2)c(C(=O)N2[C@@H]3CC[C@H]2[C@H](Nc2cnc(C(F)(F)F)cn2)C3)c1", "OUTPUT_UNIT": "µM", "NUMERIC_RESULT": 0.419}

Incoming: Fill in the blank: the reported Ki of O=C(c1ccc(F)cc1-n1nccn1)N1[C@@H]2CC[C@H]1[C@H](Nc1ccc(C(F)(F)F)cn1)C2 is ____.
Outgoing: 0.078

Incoming: Fill in the blank: the reported Ki of N#Cc1ccc(N[C@@H]2C[C@H]3CC[C@@H]2N3C(=O)c2cccc(F)c2-c2ncccn2)nc1 is ____.
Outgoing: 1

Incoming: Fill in the blank: the reported Ki of O=C(c1cccc(F)c1-c1ncccn1)N1[C@@H]2CC[C@H]1[C@H](Nc1ncc(C(F)(F)F)cc1Cl)C2 is ____.
Outgoing: 0.015

Incoming: Fill in the blank: the reported Ki of O=C(c1cc(F)ccc1-c1ncccn1)N1[C@@H]2CC[C@H]1[C@H](Nc1ncc(C(F)(F)F)cn1)C2 is ____.
Outgoing: 0.102

Incoming: Fill in the blank: the reported Ki of O=C(c1cccnc1-n1nccn1)N1[C@@H]2CC[C@H]1[C@H](Nc1cnc(C(F)(F)F)cn1)C2 is ____.
Outgoing: 0.575

====

# EXPERIMENTAL_SYSTEM: UniProtKB P56718
# METHOD_DESCRIPTION: Rat orexin 1 receptor radioligand binding (competitive binding, HEK293 membranes)
# CONDITION_PARAMETERS: read-out: rOX1 Ki
READOUT_TYPE: pKi
Would you please state pKi, meaning minus log10 of the concentration in mol/L, as a bare number?

{"ENTRY_SMILES": "O=C(c1c(F)cccc1-c1ncccn1)N1[C@@H]2CC[C@H]1[C@H](Nc1ccc(C(F)(F)F)cn1)C2", "EXPERIMENTAL_SYSTEM": "UniProtKB P56718", "NUMERIC_RESULT": 7.72}
{"ENTRY_SMILES": "O=C(c1cccc(F)c1-c1ncccn1)N1[C@@H]2CC[C@H]1[C@H](Nc1cnc(Br)cn1)C2", "EXPERIMENTAL_SYSTEM": "UniProtKB P56718", "NUMERIC_RESULT": 7.72}
{"ENTRY_SMILES": "O=C(c1ccccc1-c1ccccc1)N1[C@@H]2CC[C@H]1[C@H](Nc1cnc(C(F)(F)F)cn1)C2", "EXPERIMENTAL_SYSTEM": "UniProtKB P56718", "NUMERIC_RESULT": 7.74}

Incoming: Fill in the blank: the reported pKi of O=C(c1cccc(F)c1-c1ccccn1)N1[C@@H]2CC[C@H]1[C@H](Nc1cnc(C(F)(F)F)cn1)C2 is ____.
Outgoing: 7.92

Incoming: Fill in the blank: the reported pKi of O=C(c1cccc(Cl)c1-c1ncccn1)N1[C@@H]2CC[C@H]1[C@H](Nc1ccc(C(F)(F)F)cn1)C2 is ____.
Outgoing: 8.00

Incoming: Fill in the blank: the reported pKi of O=C(c1ccccc1-c1ncccn1)N1[C@@H]2CC[C@H]1[C@H](Nc1ncc(C(F)(F)F)cn1)C2 is ____.
Outgoing: 7.28

Incoming: Fill in the blank: the reported pKi of O=C(c1ccccc1-c1ncccn1)N1[C@@H]2CC[C@H]1[C@H](Nc1cnc(C(F)(F)F)cn1)C2 is ____.
Outgoing: 7.57
